- method_description: acid dissociation constant (Ka) of the added compound, measured at a normal temperature
- Format: physicochemical
- particulars: normal temperature; read-out: acid dissociation constant (Ka) (converted)
Param threshold (7) applies to pKa; output 1.0 when value >= threshold, 0.0 when value < threshold.

>  <cpd_smiles>
CCCc1ccc2nc[nH]c2c1

>  <assigned_class>
1.0

$$$$
>  <cpd_smiles>
c1ccc2[nH]cnc2c1

>  <assigned_class>
1.0

$$$$
>  <cpd_smiles>
Cc1cc(O)n2ncnc2n1

>  <assigned_class>
0.0

$$$$
>  <cpd_smiles>
Sc1nnnn1-c1ccccc1

>  <assigned_class>
0.0

$$$$

* * *

- method_description: acid dissociation constant (Ka) of the added compound, measured at a normal temperature
- Type: physicochemical
observed_property: pKa

>  <cpd_smiles>
Nc1ncnc2nc[nH]c12

>  <reported_result>
9.8

$$$$
